From: patent US8946302B2

molecular target: sigma-1 receptor (Cavia porcellus, UniProt Q60492); assay: Competition assay against (+)-[3H]-pentazocine, trace amines; type: binding; parameters: from tissue; details: (+)-[3H]-pentazocine 10 nM; read-out: Sigma-1R KD
Sequence (Q60492 whole entry): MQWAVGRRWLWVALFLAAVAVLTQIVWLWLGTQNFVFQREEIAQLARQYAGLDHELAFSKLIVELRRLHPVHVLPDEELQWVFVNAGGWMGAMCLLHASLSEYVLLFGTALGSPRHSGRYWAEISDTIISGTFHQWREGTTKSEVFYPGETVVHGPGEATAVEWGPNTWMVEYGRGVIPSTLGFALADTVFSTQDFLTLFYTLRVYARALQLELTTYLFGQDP
pKd: −log10 of the molar value.
measurement-name: pKd

Task item: Please look up its pKd: "NCCc1ccc(O)cc1"
Reply: < 1.52

###

test system: MCP10A; test: Cytotoxicity assay MCP10A; format: cell-based; details: Homo sapiens, HU Breast, read-out: IC50 (SE) growth inhibition
measurement-name: IC50

// each listed compound needs a value for IC50
1. CCCCN(CCCC)CCCc1ccc(F)cc1
2. CCCN(CCCc1ccc(F)cc1)CCc1ccc(N)cc1
3. CCCN(CCCc1ccc(F)cc1)Cc1ccc(N)cc1

Reply:
> 100 µM
> 100 µM
> 100 µM
